Molecular target: T1, Anti-CD28 Fab (SEQ ID NOs: 696, 697)
T1 construct: Biotinylated and captured on neutravidin coated plates in the phage ELISA
T1 sequence (VH, as listed by the source, chain 1 of 2): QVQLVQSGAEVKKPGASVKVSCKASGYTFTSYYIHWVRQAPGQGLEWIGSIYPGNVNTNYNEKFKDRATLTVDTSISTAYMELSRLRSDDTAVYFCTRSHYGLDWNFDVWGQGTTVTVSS
T1 sequence (VL, as listed by the source, chain 2 of 2): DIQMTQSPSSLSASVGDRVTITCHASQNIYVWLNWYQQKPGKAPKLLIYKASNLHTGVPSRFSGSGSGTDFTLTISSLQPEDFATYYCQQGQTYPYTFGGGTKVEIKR
Experiment: phage binding ELISA; clonal phage supernatant on biotinylated anti-CD28 Fab captured on neutravidin plate; anti-M13 HRP detection
Field: Phage binding ELISA, Anti-CD28 Fab signal. Provide a value for each of the binders that follow.
One number for each entry.

1) YCVGHLQEYMEKCL [Phage-839 (Peptide-87 library sequence, SEQ ID NO: 1155)] : 1.76
2) YCAGHVPEYMAKCL [Phage-829 (Peptide-87 library sequence, SEQ ID NO: 1145)] : 1.78
3) YCEGHLDEYMWKCL [Phage-831 (Peptide-87 library sequence, SEQ ID NO: 1147)] : 1.77
4) YCDGHSAEYITKCL [Phage-830 (Peptide-87 library sequence, SEQ ID NO: 1146)] : 1.77
5) YCEGHLPAYMQKCL [Phage-827 (Peptide-87 library sequence, SEQ ID NO: 1143)] : 1.78

Below are 5 binders. Give each one its Phage binding ELISA, Anti-CD28 Fab signal.
1. YCEGHHPQYMAKCL [Phage-828 (Peptide-87 library sequence, SEQ ID NO: 1144)]
2. YCEGHSPQYVQKCL [Phage-834 (Peptide-87 library sequence, SEQ ID NO: 1150)]
3. YCEGHLPIYMSKCL [Phage-838 (Peptide-87 library sequence, SEQ ID NO: 1154)]
4. YCDGHLDEYMEKCL [Phage-836 (Peptide-87 library sequence, SEQ ID NO: 1152)]
5. YCEGHSPEYMRKCL [Phage-835 (Peptide-87 library sequence, SEQ ID NO: 1151)]

1. 1.78
2. 1.77
3. 1.76
4. 1.76
5. 1.77

Below are 2 binders. Give each one its Phage binding ELISA, Anti-CD28 Fab signal.
1. YCDGHSSEYIAKCL [Phage-833 (Peptide-87 library sequence, SEQ ID NO: 1149)]
2. YCAGHLPEYMLKCL [Phage-837 (Peptide-87 library sequence, SEQ ID NO: 1153)]

[1.77, 1.76]
